These data points were gathered from patent US9408387B2.

test system: purple deadnettle (Lamium purpureum L; LAMPU); assay: Postemergence herbicidal activity, greenhouse, visual injury: purple deadnettle; type: in vivo; conditions: Lamium purpureum, post-emergence, 480 h; herbicide alone 35 g ae/ha; 20-22 d; read-out: LAMPU Ob (visual injury)
Readout name: pest or weed control at 35 g/ha (%)
Enter your answer as a number in %; do not include the unit.

Below: 4 molecules and their reported pest or weed control at 35 g/ha.
COC(=O)c1nc(-c2ccc(Cl)c(OC)c2F)nc(N)c1OC = 100
COc1c(N)nc(-c2ccc(Cl)c(OC)c2F)nc1C(=O)O = 100
C=Cc1c(N)nc(-c2ccc(Cl)c(OC)c2F)nc1C(=O)O = 77
C=Cc1c(N)nc(-c2ccc(Cl)c(N(C)C)c2F)nc1C(=O)O = 52

Please turn your attention to the following entry.
**Q:** What does the record list as pest or weed control at 35 g/ha for C=Cc1c(N)nc(-c2ccc(Cl)c(OC)c2F)nc1C(=O)OC ?
**A:** 75
